Some binders, each annotated with its measured koff.
- measured on: T1, human soluble urokinase plasminogen activator receptor (hsuPAR) (human, UniProt Q03405 23-303, limits assumed)
- T1 construct: Target antigen of the off-rate screen; also called human suPAR; rhuPAR-His
- protocol: BLI (Octet) off-rate screen of scFv clones
Use s⁻¹ as the unit, but write only the number.

Here is how some binders turned out for koff.
- binder: "suPAR_DB03_C12 (scFv, V domains shown, screened as scFv) VH: QVQLVQSGAEVKKPGASVKVSCKASGNTFTNYYMHWVRQAPGQGLEWMGWIDHENGNTSYDQKFQGRVTMTRDTSTSTVYMELSSLRSEDTAVYYCARGYDVDWFVYWGQGTLVTVSS VL: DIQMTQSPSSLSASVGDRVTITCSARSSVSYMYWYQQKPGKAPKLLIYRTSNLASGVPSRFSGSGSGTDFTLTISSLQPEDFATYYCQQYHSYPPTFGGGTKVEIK"
  reading: 0.00396
- binder: "suPAR_DB02_H07 (scFv, V domains shown, screened as scFv) VH: QVQLVQSGAEVKKPGASVKVSCKASGYTFTSYYVHWVRQAPGQGLEWMGWVDPSSGATDYAQKFQGRVTMTRDTSTSTVYMELSSLRSEDTAVYYCARGYDVDWFVYWGQGTLVTVSS VL: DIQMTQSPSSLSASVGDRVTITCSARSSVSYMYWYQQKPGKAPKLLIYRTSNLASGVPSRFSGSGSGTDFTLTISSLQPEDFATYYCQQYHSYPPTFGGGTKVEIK"
  reading: 0.00317
- binder: "suPAR_DB03_B10 (scFv, V domains shown, screened as scFv) VH: QVQLVQSGAEVKKPGASVKVSCKASGYTFTGYYMHWVRQAPGQGLEWMGWIDHENGNTIYDQKFQGRVTMTRDTSTSTVYMELSSLRSEDTAVYYCARGTDVDWFVYWGQGTLVTVSS VL: DIQMTQSPSSLSASVGDRVTITCSASSSISYMYWYQQKPGKAPKLLIYRTSNLASGVPSRFSGSGSGTDFTLTISSLQPEDFATYYCQQYHSYPPTFGGGTKVEIK"
  reading: 0.004
- binder: "suPAR_DB03_A08 (scFv, V domains shown, screened as scFv) VH: QVQLVQSGAEVKKPGASVKVSCKASGYTFTGYYMHWVRQAPGQGLEWMGWIDHENGSTIYAQKFQGRVTMTRDTSTSTVYMELSSLRSEDTAVYYCARGYDVDWFVYWGQGTLVTVSS VL: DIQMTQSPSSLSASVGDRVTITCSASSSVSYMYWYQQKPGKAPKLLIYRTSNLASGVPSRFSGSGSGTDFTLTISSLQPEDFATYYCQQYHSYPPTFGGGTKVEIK"
  reading: 0.000306
- binder: "suPAR_DB03_C03 (scFv, V domains shown, screened as scFv) VH: QVQLVQSGAEVKKPGASVKVSCKASGYTFTGYYMHWVRQAPGQGLEWMGWIDHENGSTSYDQKFQGRVTMTRDTSTSTVYMELSSLRSEDTAVYYCASGYDVDWFVYWGQGTLVTVSS VL: DIQMTQSPSSLSASVGDRVTITCSARSSVSYMYWYQQKPGKAPKLLIYGASNLQSGVPSRFSGSGSGTDFTLTISSLQPEDFATYYCQQYHSYPPTFGGGTKVEIK"
  reading: 0.00464

Proceeding to the next binder to report its koff.
State its koff: suPAR_DB03_B09 (scFv, V domains shown, screened as scFv) VH: QVQLVQSGAEVKKPGASVKVSCKASGYNIKSYYIHWVRQAPGQGLEWMGWIDPEGGSTIYDQKFQGRVTMTRDTSTSTVYMELSSLRSEDTAVYYCARGYDVDWFVYWGQGTLVTVSS VL: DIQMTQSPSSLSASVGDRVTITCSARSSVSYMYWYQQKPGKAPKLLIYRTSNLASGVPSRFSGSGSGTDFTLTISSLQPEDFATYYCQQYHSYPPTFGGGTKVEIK
0.00421

All values here come from patent US20250215104A1.
